EC50 overview
- tgt: Human immunodeficiency virus 2
- assay.info: In vitro inhibition of cytopathic effect was determined against HIV-2 ROD in MT-4 cells using MTT cytoprotection assay

Use the examples below as a reference point.
compound	tgt	EC50
CC(C)CCCC(C)[C@H]1CCC2C3CCC4C[C@@H](CCC=C(c5cc(Cl)c(OCc6ccc(-c7ccc(C(=O)O)cc7)cc6)c(C(=O)O)c5)c5cc(Cl)c(OCc6ccc(-c7ccc(C(=O)O)cc7)cc6)c(C(=O)O)c5)CC[C@]4(C)C3CC[C@@]21C (some centres undefined)	Human immunodeficiency virus 2	> 100 µM
CC(C)CCCC(C)[C@H]1CCC2C3CCC4C[C@@H](CCC=C(c5cc(Cl)c(OCc6ccccc6C(=O)O)c(C(=O)O)c5)c5cc(Cl)c(OCc6ccccc6C(=O)O)c(C(=O)O)c5)CC[C@]4(C)C3CC[C@@]21C (some centres undefined)	Human immunodeficiency virus 2	> 37 µM
CC(C)CCCC(C)[C@H]1CCC2C3CCC4C[C@@H](CCC=C(c5cc(Cl)c(OCc6cccc(C(=O)O)c6)c(C(=O)O)c5)c5cc(Cl)c(OCc6cccc(C(=O)O)c6)c(C(=O)O)c5)CC[C@]4(C)C3CC[C@@]21C (some centres undefined)	Human immunodeficiency virus 2	> 29 µM

# context switch: different compound, same EC50
Looking up CC(C)CCCC(C)[C@H]1CCC2C3CCC4C[C@@H](CCC=C(c5cc(Cl)c(OCc6ccc(-c7cccc(C(=O)O)c7)cc6)c(C(=O)O)c5)c5cc(Cl)c(OCc6ccc(-c7cccc(C(=O)O)c7)cc6)c(C(=O)O)c5)CC[C@]4(C)C3CC[C@@]21C (some centres undefined) , I see its EC50 listed as > 95 µM
